experiment: in vitro; settings: African green monkey, Measles CC50 Vero 76
# reported CC50; entries follow

// solved cases for CC50 follow
COMPOUND	OBSERVED_MEASUREMENT
CCc1ncnc2c1c(C#CC1CC1)cn2[C@@H]1O[C@H](CO)[C@@H](O)[C@H]1O	> 100 µM
C=C(OCC)c1ncnc2c1ccn2[C@@H]1O[C@H](CO)[C@@H](O)[C@H]1O	> 100 µM

INPUT: Return reported CC50; argument: Nc1ccn([C@@H]2O[C@H](CO)[C@@H](O)[C@H]2F)c(=O)n1 [2′-Fluoro-2′-deoxycytidine, 2′-fluoro-2′-deoxycytidine, reference compound]
OUTPUT: > 100 µg/mL

meta.source: patent US20250144125A1
